- procedure summary: recombinant barcode read abundance after kanamycin selection (control-corrected) (log10(CPM+1)); higher = more efficient recombination; sequences stand for … in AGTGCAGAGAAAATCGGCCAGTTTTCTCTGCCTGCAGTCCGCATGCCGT…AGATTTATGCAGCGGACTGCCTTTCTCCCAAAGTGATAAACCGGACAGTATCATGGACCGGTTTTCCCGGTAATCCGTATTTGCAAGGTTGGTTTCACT; site = the 11-nt target
measure name: recombinant barcode read abundance (log10)

Query recombinant barcode read abundance (log10) for ATGCAATCTTGGGTTCTAACCTGTTGCCT (site ATGCAACCTAG)
0.197

Given ATGAGGACTTGGGTTCTAACCTGTTGCCT (site ATGAGGACTAG) , respond with its recombinant barcode read abundance (log10).
1.84

In one line, give reported recombinant barcode read abundance (log10) of the entry CTTCGAACTTGGGTTCTAACCTGTTGCAT (site ACATACCCTCA) .
0.609

Give a short answer stating reported recombinant barcode read abundance (log10) for AGGTTAGCTTGGGTTCTAACCTGTTGCTA (site AGGTTAGCTTA) .
0.0546

Give recombinant barcode read abundance (log10) for the following sequence: TAGAGAGCTTGGGTTCTAACCTGTTGCGG (site TACAGAGCTCC)
0.202

Quick one: give measured recombinant barcode read abundance (log10) for TCCGACCCTTGGGTTCTAACCTGTTGCAC (site TCCGACCCTGT)
2.54

Provide recombinant barcode read abundance (log10) value for the following sequence: AAGGCCTCTTGGGTTCTAACCTGTTGCTT (site AAGCCCTCTAA)
0.156

Tell me measured recombinant barcode read abundance (log10) for ACCAGTACTTGGGTTCTAACCTGTTGCCT (site ACCAGTACTAG) please.
0.0544

Answer with the recorded recombinant barcode read abundance (log10) for the sequence listed here: GAGCGAGCTTGGGTTCTAACCTGTTGCAG (site GAGCGAGCTCT)
1.46

Given GGGGTTCCTTGGGTTCTAACCTGTTGCAT (site GGGGTTCCTAG) , respond with its recombinant barcode read abundance (log10).
1.19

Return the recorded recombinant barcode read abundance (log10) value; entry: CGCTAGTCTTGGGTTCTAACCTGTTGCCT (site CGCTCGTCTAG)
0.22

Using the record for GCCGATCCTTGGGTTCTAACCTGTTGCCT (site GTCGATCCTAG) , state its measured recombinant barcode read abundance (log10).
0.0291

Complete the entry with recombinant barcode read abundance (log10) for TGCTAAGCTTGGGTTCTAACCTGTTGCTG (site TCCTAAGCTCC)
0.288

Respond only with recombinant barcode read abundance (log10) recorded for ACCCTGGCTTGGGTTCTAACCTGTTGCCT (site ACACTGGCTAG)
0.0738

Fill in recombinant barcode read abundance (log10) for record AGTGAAGCTTGGGTTCTAACCTGTTGCAC (site AGTGAAGCTGT)
2.33

Please supply the value of reported recombinant barcode read abundance (log10) for the item CCGTCTACTTGGGTTCTAACCTGTTGCCT (site CCGTCTACTAG)
0.0187

Name the recorded recombinant barcode read abundance (log10) of the sequence listed here: TGAAATCCTTGGGTTCTAACCTGTTGCCT (site GGATATCCTAG)
0.848

----------
- procedure summary: recombinant barcode read abundance after kanamycin selection (control-corrected) (log10(CPM+1)); higher = more efficient recombination; sequences stand for … in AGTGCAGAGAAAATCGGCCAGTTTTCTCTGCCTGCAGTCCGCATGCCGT…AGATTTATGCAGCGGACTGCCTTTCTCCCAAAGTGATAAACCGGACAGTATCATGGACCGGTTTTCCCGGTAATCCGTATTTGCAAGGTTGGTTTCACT; site = the 11-nt target
measure name: recombinant barcode read abundance (log10)
No unit in the answer, please; the number alone is enough.

Fill in recombinant barcode read abundance (log10) for record AGTTCGACTTGGGTTCTAACCTGTTGCCT (site AGTTCGACTAG)
0.429

Tell us which recombinant barcode read abundance (log10) value is on record for ACAGACGCTTGGGTTCTAACCTGTTGCCT (site ACAGCCGCTAG)
0.151

Please list recombinant barcode read abundance (log10) recorded for the sequence ACAAGCCCTTGGGTTCTAACCTGTTGCCT (site AAAAGCCCTAG)
0.189

Identify measured recombinant barcode read abundance (log10) associated with CCGGTAGCTTGGGTTCTAACCTGTTGCCA (site CCGGTAGCTTG)
0.443

Provide only the value of recorded recombinant barcode read abundance (log10) for AGGAGCCCTTGGGTTCTAACCTGTTGCTT (site AGGAGCCCTAA)
1.25

Give the reported recombinant barcode read abundance (log10) for this sequence. AGTACGTCTTGGGTTCTAACCTGTTGCTT (site GTTACGTCTAA)
0.0179

Please supply the value of reported recombinant barcode read abundance (log10) for the item GGGACTTCTTGGGTTCTAACCTGTTGCAT (site GGGGCTTCTAT)
0.273

Query recombinant barcode read abundance (log10) for TGTCAAGCTTGGGTTCTAACCTGTTGCCT (site TGTCAAGCTAG)
0.46

Report recombinant barcode read abundance (log10) for GATCGATCTTGGGTTCTAACCTGTTGCTT (site GATCGATCTAC)
0

Give a short answer stating reported recombinant barcode read abundance (log10) for CGACGAGCTTGGGTTCTAACCTGTTGCGG (site CCACGAGCTCC) .
0.352

Tell me recombinant barcode read abundance (log10) reported for CACTACCCTTGGGTTCTAACCTGTTGCTT (site CACTACCCTAA)
1.24

Supply recombinant barcode read abundance (log10) value. Item: GTACGTCCTTGGGTTCTAACCTGTTGCAT (site GTACGTCCTAC)
1.01

Let me know recorded recombinant barcode read abundance (log10) for CCTGCGACTTGGGTTCTAACCTGTTGCCT (site CCTGCGACTAG) , thanks.
0.408

Give reported recombinant barcode read abundance (log10) value for ACGTGAACTTGGGTTCTAACCTGTTGCCT (site ACTTGAACTAG)
0.0355

Could you please provide reported recombinant barcode read abundance (log10) for TTAGACTCTTGGGTTCTAACCTGTTGCCA (site TTAGACTCTTG) ? Thanks!
1.06

Item CAATTTCCTTGGGTTCTAACCTGTTGCAT (site CAATTTCCTAT) : provide recombinant barcode read abundance (log10)
0.322

Fill in reported recombinant barcode read abundance (log10) for this entry: CCGGTAGCTTGGGTTCTAACCTGTTGCCA (site GCAGTAGCTTG)
0.556

Output measured recombinant barcode read abundance (log10) for this item: TCACAGTCTTGGGTTCTAACCTGTTGCCT (site TCACAGTCTAG)
1.59

Read the entry TTCCGCTCTTGGGTTCTAACCTGTTGCCT (site ATCCGCTCTAG) and write its reported recombinant barcode read abundance (log10).
0.112

Item CCAGTCACTTGGGTTCTAACCTGTTGCCT (site CCAGTGACTAG) : provide recombinant barcode read abundance (log10)
0.176

Output recombinant barcode read abundance (log10) of CGTCTGCCTTGGGTTCTAACCTGTTGCCT (site CGTCTGCCTAG)
0.0327

Please give the documented recombinant barcode read abundance (log10) of CCGGTATCTTGGGTTCTAACCTGTTGCCT (site CCGCTATCTAG)
0.688

Read the entry TGGGTCACTTGGGTTCTAACCTGTTGCTA (site GTTTAATCTAT) and write its reported recombinant barcode read abundance (log10).
0.0621

Assign recombinant barcode read abundance (log10) to the following record: GTGAGGTCTTGGGTTCTAACCTGTTGCAT (site GTGAGGTCTAG)
0.375

Specify measured recombinant barcode read abundance (log10) for GTTGGGGCTTGGGTTCTAACCTGTTGCCT (site GTGGTGGCTAG) .
0.254

Return the recorded recombinant barcode read abundance (log10) value; entry: CGTCTGCCTTGGGTTCTAACCTGTTGCCT (site TGTCTGCCTAG)
0.193

Answer with the recorded recombinant barcode read abundance (log10) for the sequence listed here: GGTGACCCTTGGGTTCTAACCTGTTGCGG (site GGTGACCCTCC)
2.73

# return recorded recombinant barcode read abundance (log10) for entry TGTGACACTTGGGTTCTAACCTGTTGCAA (site TGTGACACTTT)
1.54

Please report the measured recombinant barcode read abundance (log10) for CCGTCTACTTGGGTTCTAACCTGTTGCTA (site CCGTCTACTTA)
0.259

Provide measured recombinant barcode read abundance (log10) value, entry: TGAATTACTTGGGTTCTAACCTGTTGCCT (site TGAACTACTAG)
0.108

Please look at this sequence and report its recombinant barcode read abundance (log10): CTTTCCTCTTGGGTTCTAACCTGTTGCTT (site CTTTCCTCTAA)
0.92

----------
- procedure summary: recombinant UMI read abundance after kanamycin selection (control-corrected) (log10(CPM+1)); higher = more efficient recombination; extreme values may be limits of the assay; sequences stand for … in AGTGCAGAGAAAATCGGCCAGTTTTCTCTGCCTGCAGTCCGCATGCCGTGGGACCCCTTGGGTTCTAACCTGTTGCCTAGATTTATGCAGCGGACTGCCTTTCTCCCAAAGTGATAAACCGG…AGGTTGGTTTCACT; site = the 11-nt donor
measure name: recombinant UMI read abundance (log10)

Assign recombinant UMI read abundance (log10) to the following record: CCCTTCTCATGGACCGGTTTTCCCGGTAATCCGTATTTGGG (site CCCTACTCTCC)
0.0199

Give the measured recombinant UMI read abundance (log10) for CAAGTCACATGGACCGGTTTTCCCGGTAATCCGTATTTGGG (site CAAGTCGCTCC)
0.0204

Specify reported recombinant UMI read abundance (log10) for the sequence shown: CCCTAGCCATGGACCGGTTTTCCCGGTAATCCGTATTTGCC (site CCCTAGTCTGG)
1.15

Note down recombinant UMI read abundance (log10) recorded for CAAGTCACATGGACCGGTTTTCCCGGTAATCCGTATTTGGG (site CAAGCCACTCC)
0.239

In one line, give reported recombinant UMI read abundance (log10) of the entry GTTCGAGCATGGACCGGTTTTCCCGGTAATCCGTATTTGCA (site GTTCGAGCTTG) .
2.44

For the sequence GATTGCCCATGGACCGGTTTTCCCGGTAATCCGTATTTGAT (site GATTGCCCTAT) , report recombinant UMI read abundance (log10).
0
